target: GST-TIP-1 PDZ domain fusion protein (Homo sapiens) (UniProt O14907); assay: G assay competition against 20 uM TAX 20-mer
Endpoint: IC50

1. RNEIQSLV [Fas (CD95) 8-mer competitor peptide RNEIQSLV (unlabeled)] : 500 µM
